- MEASUREMENT TARGET: hERG (KCNH2) (Homo sapiens, UniProt Q12809)
- Sequence (Q12809 whole entry): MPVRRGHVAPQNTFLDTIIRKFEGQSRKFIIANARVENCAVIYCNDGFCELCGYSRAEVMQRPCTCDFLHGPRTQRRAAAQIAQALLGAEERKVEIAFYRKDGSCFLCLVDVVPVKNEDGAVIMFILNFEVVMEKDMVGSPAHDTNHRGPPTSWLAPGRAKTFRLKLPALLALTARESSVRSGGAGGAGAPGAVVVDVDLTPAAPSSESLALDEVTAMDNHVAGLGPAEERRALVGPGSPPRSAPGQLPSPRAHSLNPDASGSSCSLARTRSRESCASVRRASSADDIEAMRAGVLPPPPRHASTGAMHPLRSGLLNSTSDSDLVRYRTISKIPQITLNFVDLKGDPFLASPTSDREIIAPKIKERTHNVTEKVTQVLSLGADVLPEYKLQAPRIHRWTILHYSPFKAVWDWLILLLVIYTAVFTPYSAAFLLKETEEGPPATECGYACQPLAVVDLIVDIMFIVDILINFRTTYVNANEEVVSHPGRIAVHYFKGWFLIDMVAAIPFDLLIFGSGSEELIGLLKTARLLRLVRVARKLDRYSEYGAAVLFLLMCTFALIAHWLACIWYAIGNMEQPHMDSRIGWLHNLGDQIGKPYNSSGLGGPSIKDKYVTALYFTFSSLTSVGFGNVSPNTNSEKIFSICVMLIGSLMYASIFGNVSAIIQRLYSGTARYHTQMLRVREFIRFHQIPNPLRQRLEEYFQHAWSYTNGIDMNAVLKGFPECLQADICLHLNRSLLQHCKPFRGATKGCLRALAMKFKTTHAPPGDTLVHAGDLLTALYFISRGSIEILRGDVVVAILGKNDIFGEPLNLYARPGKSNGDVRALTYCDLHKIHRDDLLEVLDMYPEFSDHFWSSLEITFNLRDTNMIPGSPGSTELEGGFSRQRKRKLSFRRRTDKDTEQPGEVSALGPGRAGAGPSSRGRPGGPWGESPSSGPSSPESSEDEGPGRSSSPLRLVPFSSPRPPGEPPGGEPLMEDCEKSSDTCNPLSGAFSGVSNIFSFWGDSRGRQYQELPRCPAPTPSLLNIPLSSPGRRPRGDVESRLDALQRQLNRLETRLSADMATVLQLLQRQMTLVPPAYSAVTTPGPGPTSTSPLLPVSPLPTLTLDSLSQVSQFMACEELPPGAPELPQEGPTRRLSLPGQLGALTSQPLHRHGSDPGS
- TEST: Inhibition of human ERG at 10 uM relative to cisapride
Threshold rule: inhibition at 10 µM greater than or equal to 60% is criterion met; below that, criterion not met.

- CHEMICAL STRUCTURE: "CN(C)C(=O)CNCCc1cccc(OCC(F)(F)C(F)(F)C(F)(F)F)c1.Cl"
  ASSIGNED CATEGORY: "criterion not met"
- CHEMICAL STRUCTURE: "CCCCOc1cccc(CCNCC(=O)N(C)C)c1.Cl"
  ASSIGNED CATEGORY: "criterion not met"
- CHEMICAL STRUCTURE: "CN(C)C(=O)CNCCc1cccc(OCCCC(C)(F)F)c1.Cl"
  ASSIGNED CATEGORY: "criterion not met"

**Query** API: above_or_equal(metric=inhibition at 10 µM, cutoff=60%) for item "CN(C)C(=O)CNCCc1cccc(OCC(F)(F)C(F)(F)C(C)(F)F)c1.Cl"
**Result** criterion met

**Query** Do the same for "CN(C)C(=O)CNCCc1cccc(OCCC(C)(F)F)c1.Cl" please
**Result** criterion not met

**Query** Now consider "CCCCCOc1cccc(CCNCC(=O)N(C)C)c1.Cl" and answer again.
**Result** criterion met

**Query** Cool, now "CN(C)C(=O)CNCCc1cccc(OCC(F)(F)C(C)(F)F)c1.Cl"
**Result** criterion not met

* * *

- TEST: Intrinsic clearance in human liver microsomes preincubated in presence of NADPH for 30 mins and measured up to 30 mins by LC-MS/MS analysis
- Format: ADME, microsome
- REPORTED CONDITIONS: read-out: CLH
Would you kindly list microsomal CLint for each of these compounds?
Answers are plain numbers, in µL/min/mg.

In the examples that follow, each entry is paired with its recorded microsomal CLint.
- CHEMICAL STRUCTURE: "CN(C)C(=O)CNCCc1cccc(OCC(F)(F)C(C)(F)F)c1.Cl"
  microsomal CLint [µL/min/mg]: 10
- CHEMICAL STRUCTURE: "CN(C)C(=O)CNCCc1cccc(OCCC(C)(F)F)c1.Cl"
  microsomal CLint [µL/min/mg]: 7

// batch mode: one microsomal CLint value per listed entry
1. CCCCCOc1cccc(CCNCC(=O)N(C)C)c1.Cl
2. CN(C)C(=O)CNCCc1cccc(OCC(F)(F)C(F)(F)C(F)(F)F)c1.Cl
3. CN(C)C(=O)CNCCc1cccc(OCC(F)(F)C(F)(F)C(C)(F)F)c1.Cl
4. CCCCOc1cccc(CCNCC(=O)N(C)C)c1.Cl

**Result**
1. 29
2. 8
3. 9
4. 13

**Query** May I ask what microsomal CLint has been recorded for "CN(C)C(=O)CNCCc1cccc(OCCCC(C)(F)F)c1.Cl" ?
**Result** 7

* * *

- TEST: Aqueous solubility of the compound in phosphate buffer at pH 7.4 after 24 hrs by shake-flask method
- Assay type: physicochemical
Could you please report measured solubility thermodynamic at 24 h for the items listed next?
Answers are plain numbers, in µM.

These recorded examples may help you get a feel for the data.
- CHEMICAL STRUCTURE: "CCCCOc1cccc(CCNCC(=O)N(C)C)c1.Cl"
  solubility thermodynamic at 24 h (µM): 782
- CHEMICAL STRUCTURE: "CN(C)C(=O)CNCCc1cccc(OCC(F)(F)C(F)(F)C(F)(F)C(F)(F)F)c1.Cl"
  solubility thermodynamic at 24 h (µM): 955
- CHEMICAL STRUCTURE: "CN(C)C(=O)CNCCc1cccc(OCC(F)(F)C(C)(F)F)c1.Cl"
  solubility thermodynamic at 24 h (µM): 929
- CHEMICAL STRUCTURE: "CN(C)C(=O)CNCCc1cccc(OCCCC(C)(F)F)c1.Cl"
  solubility thermodynamic at 24 h (µM): 1000
- CHEMICAL STRUCTURE: "CCCCCOc1cccc(CCNCC(=O)N(C)C)c1.Cl"
  solubility thermodynamic at 24 h (µM): 779
- CHEMICAL STRUCTURE: "CN(C)C(=O)CNCCc1cccc(OCC(F)(F)C(F)(F)C(F)(F)F)c1.Cl"
  solubility thermodynamic at 24 h (µM): 952

List reported solubility thermodynamic at 24 h for each of these compounds:
1. CN(C)C(=O)CNCCc1cccc(OCCC(C)(F)F)c1.Cl
2. CN(C)C(=O)CNCCc1cccc(OCC(F)(F)C(F)(F)C(C)(F)F)c1.Cl

**Result**
960
946
